Target: human MetAP2 enzyme (Homo sapiens, UniProt P50579)
Sequence (P50579 whole entry): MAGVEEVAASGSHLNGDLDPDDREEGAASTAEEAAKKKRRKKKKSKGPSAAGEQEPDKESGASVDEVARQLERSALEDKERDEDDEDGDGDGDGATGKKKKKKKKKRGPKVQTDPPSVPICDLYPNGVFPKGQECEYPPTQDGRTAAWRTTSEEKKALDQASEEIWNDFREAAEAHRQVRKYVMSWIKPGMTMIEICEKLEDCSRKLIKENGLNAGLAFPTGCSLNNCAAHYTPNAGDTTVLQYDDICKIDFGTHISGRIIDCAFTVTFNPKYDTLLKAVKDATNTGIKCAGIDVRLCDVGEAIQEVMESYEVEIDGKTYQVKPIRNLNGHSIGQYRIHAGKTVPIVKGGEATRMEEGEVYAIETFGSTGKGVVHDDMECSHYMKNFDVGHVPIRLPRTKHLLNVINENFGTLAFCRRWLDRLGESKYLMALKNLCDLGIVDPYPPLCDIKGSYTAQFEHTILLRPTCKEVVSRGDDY
Assay: MetAP2 enzyme assay, MetAP2 enzyme complexed with cobalt ions
Details: MetAP2 Co pIC50, 10 μM CoCl2; -log(IC50), IC50 molar
MEASURED ATTRIBUTE: IC50 (nM)
Kindly answer with a numeric value in nM, unit omitted.

Use the examples below as a reference point.
[
  {
    "SAMPLE SMILES": "Cc1nc(N2C[C@H]3C[C@H]3[C@H]2C(N)=O)ncc1-n1c2ccc(F)cc2c2[nH]ncc21",
    "UNIT DESCRIPTOR": "nM",
    "IC50": 5.01
  },
  {
    "SAMPLE SMILES": "CCn1cnc2cc(-n3c4ccc(F)cc4c4[nH]ncc43)c(C)nc21",
    "UNIT DESCRIPTOR": "nM",
    "IC50": 3.98
  },
  {
    "SAMPLE SMILES": "Cc1nc2[nH]c(=O)n(CCO)c2cc1-n1c2ccc(F)cc2c2[nH]ncc21",
    "UNIT DESCRIPTOR": "nM",
    "IC50": 7.94
  }
]

Now turn to the next compound.
Asked: Given Cc1nc(N2CC[C@H](C(=O)NCCO)C2)ncc1-n1c2ccc(F)cc2c2[nH]ncc21 , state its recorded IC50.
Given back: 6.31
